# assay target: UniProtKB P61169
# Sequence (P61169 whole entry): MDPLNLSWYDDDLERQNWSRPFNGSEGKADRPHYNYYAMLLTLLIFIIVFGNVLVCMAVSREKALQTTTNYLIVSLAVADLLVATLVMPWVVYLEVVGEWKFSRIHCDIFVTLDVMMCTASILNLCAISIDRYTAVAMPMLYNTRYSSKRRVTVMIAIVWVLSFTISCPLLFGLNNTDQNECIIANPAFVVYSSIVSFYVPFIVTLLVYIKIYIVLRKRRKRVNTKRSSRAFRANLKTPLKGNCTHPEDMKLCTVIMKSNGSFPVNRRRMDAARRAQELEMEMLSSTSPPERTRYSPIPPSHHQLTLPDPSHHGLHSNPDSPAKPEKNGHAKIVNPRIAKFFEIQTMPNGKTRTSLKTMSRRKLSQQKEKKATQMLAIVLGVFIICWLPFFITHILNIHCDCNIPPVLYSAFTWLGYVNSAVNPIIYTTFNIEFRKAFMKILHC
# test summary: Tested in vitro for the inhibition of [3H]raclopride binding to Dopamine receptor D2 in rat striatum
Reported values of Ki for individual entries
Value expressed in µM; do not type the unit.

Example cases with answers are listed next.
1) CCCN(CCC)[C@@H]1CCc2c(ccc3ccoc23)[C@@H]1C :: 0.046
2) CCCN(CCC)C1CCc2c(ccc3ccoc23)C1 (configuration not stated) :: 0.018
3) CCCN1CC[C@H]2c3c(O)cccc3CC[C@H]21 :: 0.769

Looking up CCCN(CCC)C1CCc2ccc3ccoc3c2C1 (configuration not stated) , I see its Ki listed as 0.032

The compound identified as CCCN1CC[C@H]2c3c(ccc4ccoc34)CC[C@H]21 registered its Ki at 0.15

Entry CCCN(CCC)C1CCc2ccc3occc3c2C1 (configuration not stated) — recorded Ki = 0.064

Per the record, CCCN(CCC)[C@@H]1CCc2c(OC)cccc2[C@@H]1C has Ki of 0.015

* * *

# key: entry, value: ED50
# System: Rattus norvegicus
# test summary: The compound was evaluated in vivo for the DOPA accumulation at limbic regions
# Type: functional
# run parameters: Limbic system
// units = µmol/kg; emit number, no label

1. CCCN(CCC)C1CCc2ccc(O)cc2C1 (centres undefined) :: 0.027

Per the reported Rattus norvegicus data, CCCN(CCC)C1CCc2ccc3occc3c2C1 (centres undefined) has ED50 of 4.47

Item: CCCN(CCC)C1CCc2c(ccc3ccoc23)C1 (centres undefined) | System: Rattus norvegicus | ED50: 0.74

Form field ED50 for item CCCN(CCC)C1CCc2c(O)cccc2C1 (centres undefined) on Rattus norvegicus: 0.011

* * *

# assay target: 5-hydroxytryptamine receptor 1A (Homo sapiens, UniProt P08908)
# Sequence (P08908 whole entry): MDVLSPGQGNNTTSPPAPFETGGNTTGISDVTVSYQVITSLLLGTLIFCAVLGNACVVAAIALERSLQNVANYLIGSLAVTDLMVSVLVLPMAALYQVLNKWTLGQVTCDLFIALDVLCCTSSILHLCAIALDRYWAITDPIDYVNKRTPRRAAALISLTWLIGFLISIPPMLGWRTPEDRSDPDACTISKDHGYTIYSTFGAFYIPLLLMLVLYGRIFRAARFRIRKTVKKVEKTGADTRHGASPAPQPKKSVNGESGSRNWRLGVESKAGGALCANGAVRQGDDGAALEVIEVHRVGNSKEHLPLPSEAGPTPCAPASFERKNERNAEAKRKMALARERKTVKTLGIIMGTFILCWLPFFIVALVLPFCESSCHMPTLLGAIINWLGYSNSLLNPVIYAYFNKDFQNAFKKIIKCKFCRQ
assay metric: pKi
pKi here is simply -log10 of the concentration when that concentration is written in mol/L.

Would you please look over these solved cases?
1) CCCN(CCC)C1CCc2c(ccc3ccoc23)C1 (configuration not stated) :: 6.68
2) CCCN(CCC)C1CCc2c(O)cccc2C1 (configuration not stated) [5-OH-DPAT] :: 6.46
3) CCCN(CCC)C1CCc2ccc3ccoc3c2C1 (configuration not stated) :: 8.21
4) CCCN(CCC)[C@@H]1CCc2c(ccc3ccoc23)[C@@H]1C :: 6.92

The reported value for CCCN(CCC)C1CCc2ccc(O)cc2C1 (configuration not stated) in terms of pKi is 7.33

Reported pKi of CCCN1CC[C@H]2c3c(ccc4ccoc34)CC[C@H]21 : 8.41

The compound listed as CCCN(CCC)C1CCc2ccc3occc3c2C1 (configuration not stated) shows pKi equal to 8.11
